measurement_target: b-Raf (V600E) (Homo sapiens, UniProt P15056, V600E)
Construct: made in house
Sequence (P15056 whole entry V600E): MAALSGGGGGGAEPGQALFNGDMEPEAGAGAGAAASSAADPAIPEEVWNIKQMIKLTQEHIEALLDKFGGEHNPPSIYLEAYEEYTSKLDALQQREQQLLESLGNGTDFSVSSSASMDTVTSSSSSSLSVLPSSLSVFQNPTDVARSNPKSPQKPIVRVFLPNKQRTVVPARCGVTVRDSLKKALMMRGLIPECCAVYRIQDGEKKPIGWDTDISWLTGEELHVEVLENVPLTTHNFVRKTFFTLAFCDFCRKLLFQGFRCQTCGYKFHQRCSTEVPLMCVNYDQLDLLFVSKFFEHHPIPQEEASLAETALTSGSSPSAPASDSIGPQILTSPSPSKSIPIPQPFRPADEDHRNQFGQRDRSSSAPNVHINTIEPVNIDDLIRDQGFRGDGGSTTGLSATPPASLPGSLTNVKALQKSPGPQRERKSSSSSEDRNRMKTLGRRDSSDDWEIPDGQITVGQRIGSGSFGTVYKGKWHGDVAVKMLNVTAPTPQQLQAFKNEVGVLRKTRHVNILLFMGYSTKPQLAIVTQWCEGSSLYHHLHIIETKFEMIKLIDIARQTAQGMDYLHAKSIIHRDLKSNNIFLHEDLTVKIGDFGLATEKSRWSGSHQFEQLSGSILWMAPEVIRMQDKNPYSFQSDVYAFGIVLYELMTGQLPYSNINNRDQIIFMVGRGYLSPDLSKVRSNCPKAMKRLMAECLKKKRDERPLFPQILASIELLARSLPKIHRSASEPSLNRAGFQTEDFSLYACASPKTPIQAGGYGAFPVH
test_method_notes: In vitro Raf activity determination (Alpha Screen, biotinylated kinase-dead MEK1 substrate), B-Raf
Type: biochemical
assay_context: b-Raf (V600E) approximately 4 pM; ATP 10 μM; pre-incubation 60 minutes; reaction 3 hours at room temperature
recorded_endpoint: IC50 (nM)

Below, 3 molecules whose answers are already recorded.
molecule: Cc1ncc(NC(=O)c2ccnc(C(C)C)c2)cc1-c1cnc(C2CCOCC2)c(C#N)c1 [Example 130]
units_text: nM
IC50: 4.83
//
molecule: Cc1ncc(NC(=O)c2ccnc(C(F)(F)F)c2)cc1-c1cnc(N2CCS(=O)(=O)CC2)c(C#N)c1 [Example 86]
units_text: nM
IC50: 2.98
//
molecule: Cc1ncc(NC(=O)c2cccc(C(F)F)c2)cc1-c1cnc(N2CC(C)(O)C2)c(C#N)c1 [Example 184]
units_text: nM
IC50: 7.88

P = Cc1ccc(NC(=O)c2cccc(C(F)(F)F)c2)cc1-c1cnc(-n2ccc(=O)cc2)c(C#N)c1 [Example 118]
Q = Cc1ncc(NC(=O)c2ccnc(C3(C#N)CC3)c2)cc1-c1cnc(N2CCOCC2)c(C#N)c1 [Example 146]
R = Cc1ccc(NC(=O)c2ccnc(C(F)(F)F)c2)cc1-c1cnc(S(C)(=O)=O)c(C#N)c1 [Example 46]
S = Cc1ccc(NC(=O)c2ccnc(C(C)(C)C#N)c2)cc1-c1cc(C#N)cnc1N [Example 12]
T = Cc1ccc(NC(=O)c2cccc(C(F)(F)F)c2)cc1-c1cnc(N(C)C)c(C#N)c1 [Example 15]
Please list these in order of increasing IC50. Thank you! Kindly provide the labels arranged according to the requested ordering.
T, Q, P, R, S
